Reference source for all entries: patent US20240294661A1

% kill, A431 cells, anti-kappa-ETA' assay values, listed per item
- target desc: membrane-bound tissue factor (TF) on cells (human, UniProt P13726 33-295); also: test concentration or dose not given here
- method: cell-based or functional assay
# value in %; strip the unit string

>>> numeric_value("HuMab-TF-044 (antibody, V domains shown) VH: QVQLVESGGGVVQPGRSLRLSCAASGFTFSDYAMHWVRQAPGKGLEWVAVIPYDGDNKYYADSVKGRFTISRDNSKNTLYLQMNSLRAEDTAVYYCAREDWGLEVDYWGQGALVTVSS VL: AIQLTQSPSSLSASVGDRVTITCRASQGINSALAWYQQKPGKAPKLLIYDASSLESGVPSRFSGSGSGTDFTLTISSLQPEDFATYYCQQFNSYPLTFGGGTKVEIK")
66
>>> numeric_value("Anti-TF HuMab 098 (antibody, IgG1, V domains shown, full length, fully human monoclonal IgG1,kappa; also called HuMab-TF-098) VH: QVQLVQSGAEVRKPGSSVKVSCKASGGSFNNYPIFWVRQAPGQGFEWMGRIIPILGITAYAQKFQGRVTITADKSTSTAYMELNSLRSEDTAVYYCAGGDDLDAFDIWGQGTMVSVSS VL: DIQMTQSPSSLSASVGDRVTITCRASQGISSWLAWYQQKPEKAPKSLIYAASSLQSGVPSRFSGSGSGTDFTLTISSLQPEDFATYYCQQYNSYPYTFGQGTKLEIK")
95

Given item Anti-TF HuMab 011 (antibody, IgG1, V domains shown, full length, fully human monoclonal IgG1,kappa; also called HuMab-TF-011) VH: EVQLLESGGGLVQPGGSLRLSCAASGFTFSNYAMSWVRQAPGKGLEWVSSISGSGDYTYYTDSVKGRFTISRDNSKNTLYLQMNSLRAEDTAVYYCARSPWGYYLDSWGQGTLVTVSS VL: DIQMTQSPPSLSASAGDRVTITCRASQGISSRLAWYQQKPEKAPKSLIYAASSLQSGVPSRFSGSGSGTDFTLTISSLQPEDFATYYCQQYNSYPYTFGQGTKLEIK , the value recorded as its % kill, A431 cells, anti-kappa-ETA' assay is 96
